// values below are reported IC50
Target Entity: EZH2 (Homo sapiens, UniProt Q15910)
Sequence (Q15910 whole entry): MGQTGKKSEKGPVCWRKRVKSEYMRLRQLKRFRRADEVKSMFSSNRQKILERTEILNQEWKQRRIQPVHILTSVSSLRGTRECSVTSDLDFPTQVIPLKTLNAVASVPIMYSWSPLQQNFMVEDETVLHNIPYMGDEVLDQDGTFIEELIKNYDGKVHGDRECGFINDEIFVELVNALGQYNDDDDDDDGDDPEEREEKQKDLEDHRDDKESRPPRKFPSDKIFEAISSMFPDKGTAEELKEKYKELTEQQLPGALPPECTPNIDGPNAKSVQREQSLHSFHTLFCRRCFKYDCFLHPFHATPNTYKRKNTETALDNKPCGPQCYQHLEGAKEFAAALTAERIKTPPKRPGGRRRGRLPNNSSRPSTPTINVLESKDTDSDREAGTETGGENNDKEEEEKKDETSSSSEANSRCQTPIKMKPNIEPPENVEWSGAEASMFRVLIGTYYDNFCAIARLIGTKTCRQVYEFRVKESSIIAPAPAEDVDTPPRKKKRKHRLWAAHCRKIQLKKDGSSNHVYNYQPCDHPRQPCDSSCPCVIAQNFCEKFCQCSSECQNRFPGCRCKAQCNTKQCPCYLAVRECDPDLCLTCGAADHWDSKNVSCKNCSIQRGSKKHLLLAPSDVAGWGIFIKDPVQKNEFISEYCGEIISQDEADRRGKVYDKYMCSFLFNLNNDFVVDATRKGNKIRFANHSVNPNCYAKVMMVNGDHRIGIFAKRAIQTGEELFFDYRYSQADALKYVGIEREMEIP
Sequence (O75530 whole entry partner): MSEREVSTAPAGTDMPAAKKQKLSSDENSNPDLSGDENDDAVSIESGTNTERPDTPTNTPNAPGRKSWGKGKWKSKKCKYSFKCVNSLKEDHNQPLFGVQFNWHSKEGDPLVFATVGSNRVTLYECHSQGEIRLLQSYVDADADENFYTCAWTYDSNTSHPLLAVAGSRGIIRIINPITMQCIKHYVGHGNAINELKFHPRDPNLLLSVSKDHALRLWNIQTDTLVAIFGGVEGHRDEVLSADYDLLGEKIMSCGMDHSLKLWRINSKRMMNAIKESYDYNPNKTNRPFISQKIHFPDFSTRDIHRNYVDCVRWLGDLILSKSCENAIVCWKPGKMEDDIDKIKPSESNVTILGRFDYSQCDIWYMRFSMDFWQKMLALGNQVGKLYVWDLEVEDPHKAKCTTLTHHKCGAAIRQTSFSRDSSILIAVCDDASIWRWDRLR
Sequence (Q15022 whole entry partner): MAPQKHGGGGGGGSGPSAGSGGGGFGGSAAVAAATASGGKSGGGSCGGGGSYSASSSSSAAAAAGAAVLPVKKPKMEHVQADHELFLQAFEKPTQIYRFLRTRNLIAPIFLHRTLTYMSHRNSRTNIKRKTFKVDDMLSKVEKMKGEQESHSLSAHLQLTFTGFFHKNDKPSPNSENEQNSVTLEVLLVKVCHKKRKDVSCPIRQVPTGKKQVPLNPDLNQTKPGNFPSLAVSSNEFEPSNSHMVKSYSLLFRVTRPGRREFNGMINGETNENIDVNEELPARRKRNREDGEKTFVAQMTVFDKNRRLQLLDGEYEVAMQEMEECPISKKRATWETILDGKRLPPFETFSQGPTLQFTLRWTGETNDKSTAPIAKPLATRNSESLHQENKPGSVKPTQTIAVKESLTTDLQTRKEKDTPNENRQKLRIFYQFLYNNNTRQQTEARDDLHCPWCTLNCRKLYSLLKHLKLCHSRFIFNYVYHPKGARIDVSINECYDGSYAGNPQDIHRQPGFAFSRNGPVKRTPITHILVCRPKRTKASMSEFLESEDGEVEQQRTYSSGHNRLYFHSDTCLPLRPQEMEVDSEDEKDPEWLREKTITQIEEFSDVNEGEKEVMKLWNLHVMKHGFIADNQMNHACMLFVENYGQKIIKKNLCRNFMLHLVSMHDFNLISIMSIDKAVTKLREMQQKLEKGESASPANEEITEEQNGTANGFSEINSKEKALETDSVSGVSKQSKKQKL
Protocol Summary: EZH2 assay: rPRC2 with biotinylated oligonucleosome substrates and 3H SAM, FlashPlate scintillation counting, IC50
Assay type: biochemical
Test Conditions: rPRC2, biotinylated oligonucleosome substrates, 3H SAM; read-out: EZH2 IC50

Some molecules with known IC50 results, for comparison:
>  <Molecule>
CN(C(=O)c1ccc(COc2cccc(Br)c2)cc1)C1CCNCC1 [Compound I-126]

>  <Data Value>
> 80 µM

$$$$
>  <Molecule>
CC1(C)CC(NC(=O)c2ccc(Oc3ccccc3-c3ccccn3)c(Cl)c2)CC(C)(C)N1 [Compound I-225]

>  <Data Value>
5 to 20 µM

$$$$
>  <Molecule>
N#CCN1CCC(NC(=O)c2ccc(Oc3cccc(-c4ccnnc4)c3C#N)c(Cl)c2)CC1 [Compound I-475]

>  <Data Value>
> 80 µM

$$$$
>  <Molecule>
CC1(C)CC(NC(=O)c2ccc(C(C)(C)C)cc2)CC(C)(C)N1 [Compound I-138]

>  <Data Value>
> 80 µM

$$$$
>  <Molecule>
CC(O)c1ccccc1Oc1ccc(C(=O)NC2CC(C)(C)NC(C)(C)C2)cc1Cl (centres unmarked) [Compound I-455]

>  <Data Value>
5 to 20 µM

$$$$

Problem: So what IC50 did Cc1cccc(Oc2ccc(C(=O)NC3CC(C)(C)NC(C)(C)C3)cc2)c1 [Compound I-60] get with EZH2 (Homo sapiens, UniProt Q15910)?
Solution: 20 to 80 µM

Problem: Continue with CC1(C)CC(NC(=O)c2ccc(Oc3ccccc3-c3ccsc3)c(Cl)c2)CC(C)(C)N1 [Compound I-252]
Solution: < 5 µM

Problem: Continue with COc1cc(Oc2ccccc2C#N)ccc1C(=O)NC1CC(C)(C)NC(C)(C)C1 [Compound I-191]
Solution: > 80 µM

Problem: Continue with COc1cc(C(=O)NC2CC(C)(C)NC(C)(C)C2)ccc1COc1cccc(Br)c1 [Compound I-31]
Solution: 20 to 80 µM

Problem: Continue with CN1CCC(N(C)C(=O)c2ccc(Oc3ccccc3)cc2)CC1 [Compound I-72]
Solution: > 80 µM

Problem: Continue with CC1(C)CC(NC(=O)c2ccc(Oc3ccccc3C#N)c(-c3ccccc3)c2)CC(C)(C)N1 [Compound I-197]
Solution: < 5 µM

Problem: Continue with CC1(C)CC(NC(=O)c2ccc(Oc3ccccc3C#N)c(Cl)c2)CC(C)(C)C1 [Compound I-433]
Solution: > 80 µM

Problem: Continue with CC1(C)CC(NC(=O)c2ccc(Oc3ccccc3Br)cc2)CC(C)(C)N1 [Compound I-16]
Solution: 5 to 20 µM

Problem: Continue with COC(=O)c1cccc(COc2ccc(C(=O)NC3CC(C)(C)NC(C)(C)C3)cc2)c1 [Compound I-53]
Solution: 20 to 80 µM

Problem: Continue with CC1(C)CC(NC(=O)c2ccc(Oc3ccccc3C#N)c(-c3cn[nH]c3)c2)CC(C)(C)N1 [Compound I-213]
Solution: < 5 µM

Problem: Continue with COc1ccc(Oc2ccc(C(=O)NC3CC(C)(C)NC(C)(C)C3)cc2)c(C(=O)O)c1 [Compound I-120]
Solution: > 80 µM

Problem: Continue with Cc1ccc(Oc2ccc(C(=O)NC3CC(C)(C)NC(C)(C)C3)cc2)c(C#N)c1 [Compound I-156]
Solution: > 80 µM

The reported numbers originate from patent US20130310379A1.
